METHOD: Cell-based activity under Prompt Conditions: Cell-based activity under Prompt Conditions. Rat or human NHE3-mediated Na+-dependent H+ antiport was measured using a modification of the pH sensitive dye method originally reported by Paradiso (PNAS USA. 81:7436-7440, 1984). Opossum kidney (OK) cells were obtained from the ATCC and propagated per their instructions. The rat NHE3 gene (GenBank M85300) or the human NHE3 gene (GenBank NM_004174.1) was introduced into OK cells via electroporation, and cells were seeded into 96 well plates and grown overnight. Medium was aspirated from the wells, cells were washed twice with NaCl-HEPES buffer (100 mM NaCl, 50 mM HEPES, 10 mM glucose, 5 mM KCl, 2 mM CaCl2, 1 mM MgCl2, pH 7.4), then incubated for 30 min at room temperature with NH4Cl-HEPES buffer (20 mM NH4Cl, 80 mM NaCl, 50 mM HEPES, 5 mM KCl, 2 mM CaCl2, 1 mM MgCl2, pH 7.4) containing 5 μM bis(acetoxymethyl) 3,3′-(3′,6′-bis(acetoxymethoxy)-5-((acetoxymethoxy)carbonyl)-3-oxo-3H-spiro[isobenzofuran-1,9′-xanthene]-2′,7′-diyl)dipropanoate (BCECF-AM).Cells were washed twice with Ammonium free, Na+-free HEPES (100 mM choline, 50 mM HEPES, 10 mM glucose, 5 mM KCl, 2 mM CaCl2, 1 mM MgCl2, pH 7.4) and incubated in the same buffer for 10 minutes at room temperature to lower intracellular pH. […] Initial rates were plotted as the average 2 or more replicates, and pIC50 values were estimated using GraphPad Prism.
Reported IC50 values follow for various compounds
RECORDED ENDPOINT: IC50 (nM)

1) COCCOCCOCCOCCC(=O)NCCOCCOCCOCCN1CCN(c2cccc(-c3nc(NC(=N)N)nc4ccc(Cl)cc34)c2)CC1
50.1
2) CN1Cc2c(Cl)cc(Cl)cc2[C@H](c2cccc(NC(=O)[C@H](O)[C@@H](O)[C@H](O)[C@H](O)CO)c2)C1
25.1
3) O=C(NCCOCCOCCOCCNS(=O)(=O)c1ccc(O[C@H]2c3ccccc3C[C@@H]2N2CCCCC2)cc1)c1ccc(C(=O)NCCOCCOCCOCCNS(=O)(=O)c2ccc(O[C@H]3c4ccccc4C[C@@H]3N3CCCCC3)cc2)cc1
31.6

----------
Reported pIC50 values follow for various molecules
METHOD: Cell-based activity under Prompt Conditions: Cell-based activity under Prompt Conditions. Rat or human NHE3-mediated Na+-dependent H+ antiport was measured using a modification of the pH sensitive dye method originally reported by Paradiso (PNAS USA. 81:7436-7440, 1984). Opossum kidney (OK) cells were obtained from the ATCC and propagated per their instructions. The rat NHE3 gene (GenBank M85300) or the human NHE3 gene (GenBank NM_004174.1) was introduced into OK cells via electroporation, and cells were seeded into 96 well plates and grown overnight. Medium was aspirated from the wells, cells were washed twice with NaCl-HEPES buffer (100 mM NaCl, 50 mM HEPES, 10 mM glucose, 5 mM KCl, 2 mM CaCl2, 1 mM MgCl2, pH 7.4), then incubated for 30 min at room temperature with NH4Cl-HEPES buffer (20 mM NH4Cl, 80 mM NaCl, 50 mM HEPES, 5 mM KCl, 2 mM CaCl2, 1 mM MgCl2, pH 7.4) containing 5 μM bis(acetoxymethyl) 3,3′-(3′,6′-bis(acetoxymethoxy)-5-((acetoxymethoxy)carbonyl)-3-oxo-3H-spiro[isobenzofuran-1,9′-xanthene]-2′,7′-diyl)dipropanoate (BCECF-AM).Cells were washed twice with Ammonium free, Na+-free HEPES (100 mM choline, 50 mM HEPES, 10 mM glucose, 5 mM KCl, 2 mM CaCl2, 1 mM MgCl2, pH 7.4) and incubated in the same buffer for 10 minutes at room temperature to lower intracellular pH. […] Initial rates were plotted as the average 2 or more replicates, and pIC50 values were estimated using GraphPad Prism.
pIC50: −log10 of the molar value.
RECORDED ENDPOINT: pIC50

1) CCN(CCOCCOCCNC(=O)NCCCN(CCCNC(=O)NCCOCCOCCN(CC)S(=O)(=O)c1cccc([C@@H]2CN(C)Cc3c(Cl)cc(Cl)cc32)c1)CCCNC(=O)NCCOCCOCCN(CC)S(=O)(=O)c1cccc([C@@H]2CN(C)Cc3c(Cl)cc(Cl)cc32)c1)S(=O)(=O)c1cccc([C@@H]2CN(C)Cc3c(Cl)cc(Cl)cc32)c1
6.00
2) CN(C)[C@H]1Cc2c(Cl)cc(Cl)cc2[C@@H]1Oc1ccc(S(=O)(=O)NCCOCCOCCNC(=O)COCC(=O)NCCOCCOCCNS(=O)(=O)c2ccc(O[C@H]3c4cc(Cl)cc(Cl)c4C[C@@H]3N(C)C)cc2)cc1
8.10
3) CCNC(=O)CCOCCOCCOCCOCCOCCC(=O)NCCOCCOCCOCCN1CCN(c2ccc(-c3nc(NC(=N)N)nc4ccc(Cl)cc34)cc2)CC1
7.68
4) CN1Cc2c(Cl)cc(Cl)cc2[C@H](c2cccc(S(=O)(=O)NCCOCCOCCNC(=O)NCCCC(N)(CCCNC(=O)NCCOCCOCCNS(=O)(=O)c3cccc([C@@H]4CN(C)Cc5c(Cl)cc(Cl)cc54)c3)CCCNC(=O)NCCOCCOCCNS(=O)(=O)c3cccc([C@@H]4CN(C)Cc5c(Cl)cc(Cl)cc54)c3)c2)C1
7.00

----------
METHOD: Cell-based activity under Prompt Conditions: Cell-based activity under Prompt Conditions. Rat or human NHE3-mediated Na+-dependent H+ antiport was measured using a modification of the pH sensitive dye method originally reported by Paradiso (PNAS USA. 81:7436-7440, 1984). Opossum kidney (OK) cells were obtained from the ATCC and propagated per their instructions. The rat NHE3 gene (GenBank M85300) or the human NHE3 gene (GenBank NM_004174.1) was introduced into OK cells via electroporation, and cells were seeded into 96 well plates and grown overnight. Medium was aspirated from the wells, cells were washed twice with NaCl-HEPES buffer (100 mM NaCl, 50 mM HEPES, 10 mM glucose, 5 mM KCl, 2 mM CaCl2, 1 mM MgCl2, pH 7.4), then incubated for 30 min at room temperature with NH4Cl-HEPES buffer (20 mM NH4Cl, 80 mM NaCl, 50 mM HEPES, 5 mM KCl, 2 mM CaCl2, 1 mM MgCl2, pH 7.4) containing 5 μM bis(acetoxymethyl) 3,3′-(3′,6′-bis(acetoxymethoxy)-5-((acetoxymethoxy)carbonyl)-3-oxo-3H-spiro[isobenzofuran-1,9′-xanthene]-2′,7′-diyl)dipropanoate (BCECF-AM).Cells were washed twice with Ammonium free, Na+-free HEPES (100 mM choline, 50 mM HEPES, 10 mM glucose, 5 mM KCl, 2 mM CaCl2, 1 mM MgCl2, pH 7.4) and incubated in the same buffer for 10 minutes at room temperature to lower intracellular pH. […] Initial rates were plotted as the average 2 or more replicates, and pIC50 values were estimated using GraphPad Prism.
Reported IC50 values follow for various compounds
RECORDED ENDPOINT: IC50 (nM)

1) CN(C)CC(=O)NCCOCCOCCNC(=O)NCCOCCOCCN1CCN(c2cccc(-c3nc(NC(=N)N)nc4ccc(Cl)cc34)c2)CC1
39.8
2) COCCNS(=O)(=O)c1cccc(C2CN(C)Cc3c(Cl)cc(Cl)cc32)c1 (centres undefined)
200
3) CN1Cc2c(Cl)cc(Cl)cc2[C@H](c2cccc(S(=O)(=O)NCCOCCOCCNC(=O)NCCCC(CCCNC(=O)NCCOCCOCCNS(=O)(=O)c3cccc([C@@H]4CN(C)Cc5c(Cl)cc(Cl)cc54)c3)(CCCNC(=O)NCCOCCOCCNS(=O)(=O)c3cccc([C@@H]4CN(C)Cc5c(Cl)cc(Cl)cc54)c3)NC(=O)CCC(=O)O)c2)C1
20
4) CCOCCOCCOCCNC(=O)[C@H](O)[C@@H](O)C(=O)NCCOCCOCCOCCNS(=O)(=O)c1ccc(O[C@H]2c3ccccc3C[C@@H]2N2CCCCC2)cc1
20
5) CCOCCOCCOCCOCCC(=O)NCCOCCOCCOCCNS(=O)(=O)c1ccc(O[C@H]2c3ccccc3C[C@@H]2N2CCCCC2)cc1
35.5
6) CN1Cc2c(Cl)cc(Cl)cc2[C@H](c2cccc(S(=O)(=O)NCCOCCOCCNC(=O)CCC(CCC(=O)NCCOCCOCCNS(=O)(=O)c3cccc([C@@H]4CN(C)Cc5c(Cl)cc(Cl)cc54)c3)(CCC(=O)NCCOCCOCCNS(=O)(=O)c3cccc([C@@H]4CN(C)Cc5c(Cl)cc(Cl)cc54)c3)NC(=O)COCC(=O)O)c2)C1
25.1
7) CN(C)[C@H]1Cc2c(Cl)cc(Cl)cc2[C@@H]1Oc1ccc(S(=O)(=O)NCCOCCOCCNC(=O)[C@H](O)[C@@H](O)C(=O)NCCOCCOCCNS(=O)(=O)c2ccc(O[C@H]3c4cc(Cl)cc(Cl)c4C[C@@H]3N(C)C)cc2)cc1
2.51
8) CN(CC(=O)O)CC(=O)NC(CCC(=O)NCCOCCOCCNS(=O)(=O)c1cccc([C@@H]2CN(C)Cc3c(Cl)cc(Cl)cc32)c1)(CCC(=O)NCCOCCOCCNS(=O)(=O)c1cccc([C@@H]2CN(C)Cc3c(Cl)cc(Cl)cc32)c1)CCC(=O)NCCOCCOCCNS(=O)(=O)c1cccc([C@@H]2CN(C)Cc3c(Cl)cc(Cl)cc32)c1
50.1
9) COCCNC(=O)CN(C)CC(=O)NCCOCCOCCNC(=O)NCCOCCOCCOCCN1CCN(c2cccc(-c3nc(NC(=N)N)nc4ccc(Cl)cc34)c2)CC1
20
10) CCOCCOCCOCCOCCOCCC(=O)N(CCNC(=O)NCCOCCOCCNS(=O)(=O)c1cccc([C@@H]2CN(C)Cc3c(Cl)cc(Cl)cc32)c1)CCNC(=O)NCCOCCOCCNS(=O)(=O)c1cccc([C@@H]2CN(C)Cc3c(Cl)cc(Cl)cc32)c1
251
11) C/C(=C\c1cc(F)c(Oc2ccc(S(=O)(=O)NCCOCCOCCOCCNC(=O)NCCCCNC(=O)NCCOCCOCCOCCNS(=O)(=O)c3ccc(Oc4c(F)cc(/C=C(\C)C(=O)N=C(N)N)cc4F)cc3)cc2)c(F)c1)C(=O)N=C(N)N
31.6
12) CCOCCOCCOCCNC(=O)NCCCCNC(=O)NCCOCCOCCOCCNS(=O)(=O)c1ccc(O[C@H]2c3ccccc3C[C@@H]2N2CCCCC2)cc1
39.8
13) COCCNC(=O)CN(C)CC(=O)NCCOCCOCCNC(=O)NCCOCCOCCOCCOc1cccc(-c2nc(NC(=N)N)nc3ccc(Cl)cc23)c1
31.6
14) CN1Cc2c(Cl)cc(Cl)cc2[C@H](c2cccc(S(=O)(=O)NCCOCCOCCNC(=O)CN(CCOCCOCCOCCN)CC(=O)NCCOCCOCCNS(=O)(=O)c3cccc([C@@H]4CN(C)Cc5c(Cl)cc(Cl)cc54)c3)c2)C1
15.8

All figures here come from ChEMBL document CHEMBL5726876.
